Assay: yeast display, Sf9 membrane polyspecificity reagent, FACS + sequencing; frameworks hold sequencing errors

Chain	polyreactivity (PSR sort gate)
QVQLVESGGGLVQAGGSVRLSCAASGRIFRYYMGWYRQAPGKEREFVAAITTRGGRTYYADSVKGRFTISRDNAKNTVSLQMNSLKPEDTAVYYCAAGYNGAIIALRAYDYWGQGTQVTVSS	high polyreactivity
QVQLGESGGGLVQAGGSLRLICAASGRTIRQYAMGRYRQAPGKERELVAAIDSGGSTYYADSVKGRFTISRDNAKNTVYLQMNSLKPEYTAVYYCAKGPSWKYYSYTLDYWGQGTQVTVSS	low polyreactivity
QVQLVESGGGLVQAGGSLRLSCAASGFIFYKNAMGWYRQAPGKERELVAAITQRGGRTYYADSVKGRFTISRDNSKNTVYLQMNSLKPEDTAVYYCAAKALYGKQAWRYNYWGQGTQVTVSS	high polyreactivity
QVQLVESGGGIVQAGGSLRLSCAASGRIFYFNAMGWYSQAPGKERELVAAISGSGGDTYYADSVKGRFTISRDNAKNTVYLQMNSLKPEDTAVYFCAKEYIFRLWGQGTQVTVSS	low polyreactivity
QVQLVESGGGLVQAGGSLRLSCAASGRIFSTYAMGWYRQAPGKERELVAAINSIGGRTYYADSVKGRFTISRDNAKNTVYLQMNSLKPEDTAVYYCAAGYRTRRGLGYYYWGQGTQVTVSS	high polyreactivity
QVQLVESGGGLVQAGGSLRLSCAASGSNFTYYAMGWYRQAPGKERELVAAISYSGGTTYYADSVKGRFTISRDNAKNTVYLQMNSLKPEDTAVYYCNVDADYESQWLSVGYDYWGQGTQVTVSS	low polyreactivity
QVQLVESGGGLVQAGGSLRLSCAASGSTFYSYAMGWYRQAPGKERELVAAITYSDGDTYYADSVKGRFTISRDNAKNTVYLQMNSLKPEDTAVYYCAAEYQGQPGTGNLEYWGQGTQVTVSS	low polyreactivity
QVQLVESGGGLVQAGGSLRFSCAASGRIFDYYAMGGYRQAPGKERELVATINVSDGSTYYADSVKGRFTISRDNAKNTVYLQMNSLKPEDTAVYYCAAAGWVPFDSLDLNYWGQGTQVTVSS	low polyreactivity

----------
Experiment: yeast display, Sf9 membrane polyspecificity reagent, FACS + sequencing; frameworks hold sequencing errors
Outcome Measure: polyreactivity (PSR sort gate)

Chain	Experimental Value
QVQLVESGGGLVQAGGSLRLSCAASGSIFYYNMGWYRPAPGKERELVAAISGGGGSTFYADSVKGRFTISRDNAKNTVYLQMNSLKPEDTAVYYCAARATTRRKKRMDYWGQGTQVTVSS	high polyreactivity
QVQLVESGGGLVQAGGSLRLSCAASGSIFLFNTMGWYRQAPGKERELVAVISRGGITYYADSVKGRFTISRDNAKNTVYLQMNSLKPEDTAVYYCAADGGYWSQYDYWGQGTQVTVSS	low polyreactivity
QVQLVESGGGLVQAGGSLRLSCAASGYTFYANAMGWYRQAPGKEREFVASNTWSGGSTYYADSVKGRFTISRDTAKITVYLQMNSLKPEDTAVYYWAAESWFNYDYWGQGTQVTVSS	low polyreactivity
QVQLVESGGGLVQAGGSLRLSCAASGSIFSTYTMGWYRQAPGKERELVATIRLRGGSTYYADSVKGRFTISRDNAKNTVYLQMNSLKPEDTAVYYCNKAYRYYQYGYWGQGTQVTVSS	high polyreactivity
